Origin of the recorded values: ChEMBL document CHEMBL1147318

System: Dolichospermum flos-aquae
assay.details: Antialgal activity against Anabaena flos-aquae NIES 73 after 48 hrs by fluorophotometric method
Format: functional, organism-based
measure: IC50 (µM)
Enter your answer as a number in µM; do not include the unit.

Solved entries (count: 2):
C[C@@H]1O[C@@H](Oc2c(-c3ccc(O)c(O)c3)oc3cc(O)cc(O)c3c2=O)[C@H](O)[C@H](O)[C@H]1O
45
O=c1c(O[C@@H]2O[C@@H](CO)[C@H](O)[C@H]2O)c(-c2ccc(O)c(O)c2)oc2cc(O)cc(O)c12
28

[in] So what's the measured IC50 for this one? `O=C(O[C@@H]1O[C@@H]2COC(=O)c3cc(O)c(O)c(O)c3-c3c(cc(O)c(O)c3O)C(=O)O[C@H]2[C@H](OC(=O)c2cc(O)c(O)c(O)c2)[C@H]1OC(=O)c1cc(O)c(O)c(O)c1)c1cc(O)c(O)c(O)c1`
[out] 2.8
